# MEASURED ON: CYP2E1 (Homo sapiens, UniProt P05181)
# Sequence (P05181 whole entry): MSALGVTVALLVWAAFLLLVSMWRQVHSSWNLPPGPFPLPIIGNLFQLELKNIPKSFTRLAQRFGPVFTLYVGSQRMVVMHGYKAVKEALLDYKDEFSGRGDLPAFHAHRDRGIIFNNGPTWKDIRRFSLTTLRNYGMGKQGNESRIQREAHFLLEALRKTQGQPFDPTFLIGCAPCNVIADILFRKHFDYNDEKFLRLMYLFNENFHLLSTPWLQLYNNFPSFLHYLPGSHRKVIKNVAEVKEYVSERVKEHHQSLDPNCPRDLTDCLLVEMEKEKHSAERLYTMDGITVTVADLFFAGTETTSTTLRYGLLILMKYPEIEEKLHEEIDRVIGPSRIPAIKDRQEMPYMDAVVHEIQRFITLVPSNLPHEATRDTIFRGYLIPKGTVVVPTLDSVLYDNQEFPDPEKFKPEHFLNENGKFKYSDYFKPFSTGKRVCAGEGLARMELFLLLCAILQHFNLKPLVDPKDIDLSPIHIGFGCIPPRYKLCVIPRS
# RUN DESCRIPTION: CYP2E1 baculosome pNP hydroxylation
# Type: biochemical
# APPLIED CONDITIONS: read-out: 2E1-pNP KM; substrate constant used for Cheng-Prusoff
MEASURED METRIC: Km (µM)
Answers are plain numbers, in µM.

Q: Report measured Km; entry is O=[N+]([O-])c1ccc(O)cc1
Result: 14

###

# MEASURED ON: UniProtKB P05181
# RUN DESCRIPTION: CYP2E1 baculosome pNP hydroxylation
# Assay type: biochemical
# APPLIED CONDITIONS: read-out: Ki Noncompetitive; calculated from IC50 (website)
MEASURED METRIC: Ki (µM)
One number for each entry, in µM.

Q: Report measured Ki; entry is CCc1oc2ccccc2c1C(=O)c1ccc(OC)cc1 [MeOBzr, methoxybenzarone]
Result: 115
